ASSAY_NAME: Cytotoxicity against human HPLF cells after 48 hrs by MTT assay
Format: cell-based
QUANTITY_NAME: CC50 at 48 h (µM)
Lab book: enter the figure in µM, no units written.

Solved entries:
Task item: Supply recorded CC50 at 48 h for `O=C1O[C@@H]2O[C@@H]3COC(=O)c4cc(O)c(O)c(O)c4-c4c(cc(O)c(O)c4O)C(=O)O[C@H]3[C@H](OC(=O)c3cc(O)c(O)c(O)c3)[C@H]2OC(=O)c2cc(Oc3c(C(=O)O)cc(O)c(O)c3O)c(O)c(O)c2Oc2cc1cc(O)c2O` here.
Reply: 361

Task item: # return recorded CC50 at 48 h for input `O=C(O[C@@H]1O[C@@H]2COC(=O)c3cc(O)c(O)c(O)c3-c3c(cc(O)c(O)c3O)C(=O)O[C@H]2[C@H](OC(=O)c2cc(O)c(O)c(O)c2)[C@H]1OC(=O)c1cc(O)c(O)c(O)c1Oc1cc2c(c(O)c1O)Oc1cc(cc(O)c1O)C(=O)O[C@@H]1O[C@H](CO)[C@@H](O)[C@H](OC(=O)c3cc(O)c(O)c(O)c3)[C@H]1OC2=O)c1cc(O)c(O)c(O)c1`
Reply: 358

Task item: Answer with the recorded CC50 at 48 h for the compound listed here: `O=C(O)c1cc(O)c(O)c(Oc2c(C(=O)O[C@H]3[C@H](OC(=O)c4cc(O)c(O)c(O)c4)O[C@@H]4COC(=O)c5cc(O)c(O)c(O)c5-c5c(cc(O)c(O)c5O)C(=O)O[C@H]4[C@@H]3OC(=O)c3cc(O)c(O)c(O)c3O)cc(O)c(O)c2O)c1`
Reply: 373

***
Task item: Please report CC50 at 48 h for the following compound: `O=C(O)c1cc(O)c(O)c(Oc2c(C(=O)O[C@@H]3[C@@H](OC(=O)c4cc(O)c(O)c(O)c4O)[C@@H]4OC(=O)c5cc(O)c(O)c(O)c5-c5c(cc(O)c(O)c5O)C(=O)OC[C@H]4O[C@H]3O)cc(O)c(O)c2O)c1`
Reply: 375

Task item: Give the reported value of CC50 at 48 h for this record: `O=C(O[C@@H]1O[C@@H]2COC(=O)c3cc(O)c(O)c(O)c3-c3c(cc(O)c(O)c3O)C(=O)O[C@H]2[C@H](OC(=O)c2cc(O)c(O)c(O)c2)[C@H]1OC(=O)c1cc(O)c(O)c(O)c1Oc1cc2c(c(O)c1O)Oc1cc(cc(O)c1O)C(=O)O[C@@H]1O[C@@H]3COC(=O)c4cc(O)c(O)c(O)c4-c4c(cc(O)c(O)c4O)C(=O)O[C@H]3[C@H](OC(=O)c3cc(O)c(O)c(O)c3)[C@H]1OC2=O)c1cc(O)c(O)c(O)c1`
Reply: 293

Task item: Return value of CC50 at 48 h for input `O=C1O[C@@H]2O[C@@H]3COC(=O)c4cc(O)c(O)c(O)c4-c4c(cc(O)c(O)c4O)C(=O)O[C@H]3[C@H](OC(=O)c3cc(O)c(O)c(O)c3)[C@H]2OC(=O)c2cc(Oc3c(C(=O)O[C@@H]4[C@@H](OC(=O)c5cc(O)c(O)c(O)c5)[C@@H]5OC(=O)c6cc(O)c(O)c(O)c6-c6c(cc(O)c(O)c6O)C(=O)OC[C@H]5O[C@H]4O)cc(O)c(O)c3O)c(O)c(O)c2Oc2cc1cc(O)c2O` , no commentary.
Reply: 353
